Data origin, for the record: patent US8119633B2

- Study Target: human bradykinin receptor 1 (B1R) (Homo sapiens, UniProt P46663)
- Construct: expressed in transfected cells; host or cells: CHO K1 cells
- Sequence (P46663 1-353): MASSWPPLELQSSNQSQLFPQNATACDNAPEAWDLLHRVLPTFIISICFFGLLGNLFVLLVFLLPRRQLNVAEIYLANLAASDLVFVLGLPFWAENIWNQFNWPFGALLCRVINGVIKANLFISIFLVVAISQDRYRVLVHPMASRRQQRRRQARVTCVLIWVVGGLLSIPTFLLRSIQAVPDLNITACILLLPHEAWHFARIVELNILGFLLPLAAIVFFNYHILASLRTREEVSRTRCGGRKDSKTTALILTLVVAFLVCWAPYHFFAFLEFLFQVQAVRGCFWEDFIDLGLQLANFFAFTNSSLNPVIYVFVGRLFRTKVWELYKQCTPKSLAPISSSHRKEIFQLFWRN
- Procedure Summary: Functional study on the bradykinin receptor 1 (B1R), human: FLIPR Ca2+ influx assay
- Format: cell-based
- Condition Details: test substance 10 μM; CHO K1 cells transfected with human B1R; Lys-Des-Arg9-bradykinin at EC80; Ca2+ influx (Fluo-4, FLIPR); read-out: B1R antagonism, human [10 μM] % inhibition
Measurement Label: inhibition at 10 µM
Include the unit after the number when you answer.

Take a look at these entries with their results.
Request: For the molecule O=C(CC1CCCCN1S(=O)(=O)c1ccc(Cl)c(Cl)c1)NC1CCC(C(CCc2ccccc2)N2CCOCC2)CC1 (stereo not shown) , report inhibition at 10 µM.
Result: 96.8%

Request: Give the measured inhibition at 10 µM for O=C(CC1CCCCN1S(=O)(=O)c1ccc(Cl)c(Cl)c1)NC1CCC(C(c2ccccc2)N2CCCC2)CC1 (stereo not shown)
Result: 102%

Request: Report measured inhibition at 10 µM; entry is CN1CCN(C(c2ccccc2)C2CCN(C(=O)CC(NS(=O)(=O)c3ccc4ccccc4c3)c3ccccc3)CC2)CC1 (stereo not shown)
Result: 93%

Okay, here is my list. What is inhibition at 10 µM for each of these?
1. CN1CCN(C(c2ccccc2)C2CCC(NC(=O)CC3C(=O)NCCN3S(=O)(=O)c3ccc(Cl)cc3Cl)CC2)CC1 (stereo not shown)
2. O=C(CC1CCCN1S(=O)(=O)c1ccc(Cl)c(Cl)c1)N1CCC(C(c2ccccc2)N2CCOCC2)CC1 (stereo not shown)
3. CN(C)C(c1cccc(F)c1)C1CCC(NC(=O)C2Cc3ccccc3N2S(=O)(=O)c2ccc(Cl)c(Cl)c2)CC1 (stereo not shown)
4. O=C1Nc2ccccc2N(S(=O)(=O)c2ccc(Cl)c(Cl)c2)C1CC(=O)N1CCC(C(Cc2ccccc2)N2CCOCC2)CC1 (stereo not shown)

Result:
1. 104%
2. 16.7%
3. 26%
4. 102%

----------
- Study Target: bradykinin receptor 1 (B1R) of the rat (Rattus norvegicus)
- Construct: expressed in transfected cells; host or cells: CHO K1 cells
- Sequence (P97583 1-337): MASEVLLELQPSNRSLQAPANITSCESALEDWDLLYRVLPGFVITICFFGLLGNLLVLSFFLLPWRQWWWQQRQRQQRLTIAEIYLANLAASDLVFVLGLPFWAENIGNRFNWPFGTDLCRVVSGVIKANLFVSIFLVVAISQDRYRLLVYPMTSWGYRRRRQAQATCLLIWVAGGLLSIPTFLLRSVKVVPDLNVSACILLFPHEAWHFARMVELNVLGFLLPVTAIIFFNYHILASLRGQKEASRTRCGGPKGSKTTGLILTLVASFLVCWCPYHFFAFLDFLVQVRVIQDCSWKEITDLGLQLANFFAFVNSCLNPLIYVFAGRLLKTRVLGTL
- Procedure Summary: Functional study on the bradykinin receptor 1 (B1R), rat: FLIPR Ca2+ influx assay
- Format: cell-based
- Condition Details: test substance 10 μM; CHO K1 cells transfected with rat B1R; Des-Arg9-bradykinin at EC80; Ca2+ influx (Fluo-4, FLIPR); read-out: B1R antagonism, rat [10 μM] % inhibition
Measurement Label: inhibition at 10 µM (%)
One number for each entry, in %.

Examples from the recorded data:
Request: State its inhibition at 10 µM: COc1ccc(S(=O)(=O)N2CCc3ccccc3C2CC(=O)NCCC2CCC(C(c3cccs3)N(C)C)CC2)cc1 (stereo not shown)
Result: 68

Request: Identify measured inhibition at 10 µM associated with O=C(CC1C(=O)NCCN1S(=O)(=O)c1ccc(Cl)cc1Cl)NCC1CCC(C(c2ccccc2)N2CCOCC2)CC1 (stereo not shown)
Result: 26

Request: Specify measured inhibition at 10 µM for CN1CCN(C(c2cccc(F)c2)C2CCN(C(=O)CC(NS(=O)(=O)c3ccc4ccccc4c3)c3ccccc3)CC2)CC1 (stereo not shown) .
Result: 100

Pending compound:
Request: Output inhibition at 10 µM of CN(C)C(c1ccccc1)C1CCC(CNC(=O)c2c(N(C)S(=O)(=O)c3ccc(Cl)c(Cl)c3)sc3c2CCCC3)CC1 (stereo not shown)
Result: -9

----------
- Study Target: bradykinin receptor 1 (B1R) of the rat (Rattus norvegicus)
- Construct: expressed in transfected cells; host or cells: CHO K1 cells
- Procedure Summary: Functional study on the bradykinin receptor 1 (B1R), rat: FLIPR Ca2+ influx assay
- Type: cell-based
- Condition Details: test substance 10 μM; CHO K1 cells transfected with rat B1R; Des-Arg9-bradykinin at EC80; Ca2+ influx (Fluo-4, FLIPR); read-out: B1R antagonism, rat [10 μM] % inhibition
Can you tell me inhibition at 10 µM for the items I'm about to list?
Give bare numbers, in %.

Need inhibition at 10 µM for each of these molecules.
1. O=C(CC1CCCCN1S(=O)(=O)c1ccc(Cl)c(Cl)c1)NCC1CCC(C(c2ccccc2)N2CCCC2)CC1 (stereo not shown)
2. CN1CCN(C(c2ccccc2)C2CCN(C(=O)CC(NS(=O)(=O)c3ccc4ccccc4c3)c3ccccc3)CC2)CC1 (stereo not shown)
3. O=C(CC1CCCN1S(=O)(=O)c1ccc(Cl)c(Cl)c1)NCC1CCC(C(c2ccccc2)N2CCCC2)CC1 (stereo not shown)
4. CN(C)C(c1ccc(F)cc1)C1CCC(CNC(=O)CC2c3ccccc3CCN2S(=O)(=O)c2ccc(Cl)c(Cl)c2)CC1 (stereo not shown)

Result:
1. 22
2. 71
3. 9
4. 48

----------
- Study Target: human bradykinin receptor 1 (B1R) (Homo sapiens)
- Construct: expressed in transfected cells; host or cells: CHO K1 cells
- Procedure Summary: Functional study on the bradykinin receptor 1 (B1R), human: FLIPR Ca2+ influx assay
- Type: cell-based
- Condition Details: test substance 10 μM; CHO K1 cells transfected with human B1R; Lys-Des-Arg9-bradykinin at EC80; Ca2+ influx (Fluo-4, FLIPR); read-out: B1R antagonism, human [10 μM] % inhibition
Could you label it criterion met if measured inhibition at 10 µM is 80% or higher, and criterion not met otherwise?

Answered examples (3):
Request: Could you please find out whether O=C(CC1C(=O)Nc2ccccc2N1S(=O)(=O)c1ccc(Cl)c(Cl)c1)NCC1CCC(C(c2ccccc2)N2CCCC2)CC1 (stereo not drawn) has inhibition at 10 µM that meets 80% or exceeds it?
Result: criterion met

Request: Please indicate if the recorded inhibition at 10 µM for CN(C)C(c1ccc(F)cc1)C1CCC(NC(=O)CC2c3ccccc3CCN2S(=O)(=O)c2ccc(Cl)c(Cl)c2)CC1 (stereo not drawn) meets or exceeds 80%.
Result: criterion met

Request: Does inhibition at 10 µM meet or surpass 80% for O=C(CC1C(=O)Nc2ccccc2N1S(=O)(=O)c1ccc(Cl)c(Cl)c1)NCC1CCC(C(c2ccccc2)N2CCOCC2)CC1 (stereo not drawn) ?
Result: criterion met

Continuing:
Request: Assess whether reported inhibition at 10 µM for COc1ccc(S(=O)(=O)N2CCc3ccccc3C2CC(=O)NCC2CCC(C(c3ccc(Cl)cc3)N(C)C)CC2)cc1 (stereo not drawn) sits at 80% or higher.
Result: criterion not met

Request: Determine whether this compound has inhibition at 10 µM no lower than 80%: COc1ccc(S(=O)(=O)N2CCc3ccccc3C2CC(=O)NCCC2CCC(C(c3ccc(Cl)cc3)N(C)C)CC2)cc1 (stereo not drawn)
Result: criterion not met

Request: State whether the measured inhibition at 10 µM reaches 80%, counting equality as reaching it, for CN1CCN(C(Cc2ccccc2)C2CCN(C(=O)CC(NS(=O)(=O)c3ccc4ccccc4c3)c3ccccc3)CC2)CC1 (stereo not drawn)
Result: criterion met

Request: # bool: inhibition at 10 µM of CN(C)C(CCc1ccccc1)C1CCC(CCNC(=O)C2Cc3ccccc3N2S(=O)(=O)c2ccc(Cl)c(Cl)c2)CC1 (stereo not drawn) >= 80%
Result: criterion not met

Request: Could you please find out whether CN(C)C(c1ccccc1)C1CCC(NC(=O)CC2c3ccccc3CCN2S(=O)(=O)c2ccc(Cl)c(Cl)c2)CC1 (stereo not drawn) has inhibition at 10 µM that meets 80% or exceeds it?
Result: criterion not met

Request: Check this compound for inhibition at 10 µM at or above 80%: CN(C)C(c1ccc(Cl)cc1)C1CCC(CCNC(=O)CC2c3ccccc3CCN2S(=O)(=O)c2ccc(Cl)c(Cl)c2)CC1 (stereo not drawn)
Result: criterion not met

Request: Please indicate if the recorded inhibition at 10 µM for CN1CCN(C(c2ccccc2)C2CCC(NC(=O)CC3CCCCN3S(=O)(=O)c3ccc(Cl)c(Cl)c3)CC2)CC1 (stereo not drawn) meets or exceeds 80%.
Result: criterion met
